# Assay details: qHTS Assay to Identify Small Molecule Activators of BRCA1 Expression; also: nearly all actives have a fitted effect of over 80% in size
# Condition label: MCF7-BRCA1-FFLuc reporter, luminescence, 48 h; series mostly up to 46.1 µM
The whole screen tested about 380,000 compounds, of which about 4,000 (1.1%) were called active. Another 3% or so got no clear call; they are omitted. Calls follow the shape of the dose curve; as a rule, active = well fitted activation curve with a large enough effect; inconclusive = small, poorly fitted or top-dose-only effect; inactive = no such curve, though single readings can be large or run the other way. This is one part of a sample in which actives are shown more often than they occur.
Labels: 1 (yes) (active), 0 (no) (inactive)

molecule=CCOc1ccc(N(C)S(=O)(=O)c2cc(-c3cnc(C)o3)ccc2OC)cc1 category_label="0 (no)"
molecule=COc1ccccc1OCCNC(=O)CCNC(=O)c1ccccc1Cl category_label="0 (no)"
molecule=Cc1ccc(S(=O)(=O)NCC(=O)Nc2ccc3c(c2)OCCO3)cc1 category_label="0 (no)"
molecule=CCN(CCCNC(=O)c1cc2cc3cc(OC)ccc3nc2s1)c1ccccc1 category_label="0 (no)"
molecule=COc1ccc2c(c1)c(N1CCCC1=O)c(C(=O)Nc1ccc(OC)c(Cl)c1)n2C category_label="0 (no)"
molecule=COc1ccc(CCNC(=O)C(=O)Nc2ccc3nc4n(c(=O)c3c2)CCCCC4)cc1OC category_label="0 (no)"
molecule=CCOc1ncccc1C(=O)Nc1ccc2c(c1)OCCO2 category_label="0 (no)"
molecule="Cc1ccc(N2CC(C(=O)Nc3ccc(N(C)C)cc3)CC2=O)cc1Cl (stereo unspecified)" category_label="0 (no)"
molecule=N#Cc1ccccc1NC(=O)c1ccc2c(c1)OCO2 category_label="1 (yes)"
molecule=Cc1cc(C)cc(-n2ccnc2SCC(=O)Nc2nc3ccccc3s2)c1 category_label="0 (no)"
molecule=Cc1ccc(C(=O)Nc2nc3ccc(Cl)cc3s2)o1 category_label="1 (yes)"
molecule=O=C(CN1CCCCCC1)Nc1ccc(Br)cc1[N+](=O)[O-] category_label="0 (no)"
molecule=COc1cc(OC)c(OC)cc1/C=C1\C=Cc2ccccc21 category_label="0 (no)"
molecule=COC(=O)c1ccccc1NC(=O)Cn1c(=O)cc(C)c2c(C)nn(-c3cccc(Cl)c3C)c21 category_label="0 (no)"
molecule=COC(=O)C1=C(c2ccccc2)c2ccccc2S(=O)(=O)N1CC(=O)Nc1ccccc1C(F)(F)F category_label="0 (no)"
molecule=Cc1ccc(C(=O)NNC(=O)c2ccc3c(c2)OCCO3)cc1 category_label="1 (yes)"
molecule=C/C(=N/NC(=S)Nc1ccccc1)c1ccc2c(c1)OCO2 category_label="0 (no)"
molecule=Cc1ccc(-c2nc3ccccn3c2Nc2ccc(F)cc2)o1 category_label="0 (no)"
molecule=O=C(Nc1ccc2nc3n(c(=O)c2c1)CCCC3)c1ccc(Cl)nc1 category_label="0 (no)"
molecule=COc1ccc(C(=O)NCc2nnc(SCC(=O)Nc3cccc(OC)c3)o2)cc1 category_label="0 (no)"
molecule=COCCN(C(=O)C(C)C)c1nnc(-c2ccc(C(C)(C)C)cc2)s1 category_label="0 (no)"
molecule=CC(=O)Nc1cccc(-c2cc(NC(C)=O)c3ncc(-c4ccccc4)n3c2)c1 category_label="0 (no)"
molecule=O=C(NCCOc1ccccc1Cl)C(=O)Nc1ccccc1 category_label="0 (no)"
molecule=COc1ccccc1Cn1c(CO)nc2ccccc21 category_label="0 (no)"
molecule=O=C(CSc1nnc(-c2c[nH]c3ccccc23)o1)c1ccccc1 category_label="1 (yes)"
molecule="Oc1ccc(Cl)cc1C1C=C(c2ccc3c(c2)OCO3)NC(c2ccc(F)c(Br)c2)N1 (stereo unspecified)" category_label="0 (no)"
molecule=Cc1sc2ncnc(N3CCC(C(=O)Nc4nc5ccc(Cl)cc5s4)CC3)c2c1C category_label="0 (no)"
molecule=COc1ccc(-c2cc(-c3ccc(F)cc3)nc3c2COc2ccccc2-3)cc1 category_label="0 (no)"
molecule=CCS(=O)(=O)Nc1cccc(-c2cc(-c3ccccc3)c3cc(C)ccc3n2)c1 category_label="0 (no)"
molecule=Cc1ccc(C=O)cc1Cl category_label="0 (no)"
molecule=CC(=O)c1ccc(NC(=O)c2cc(-c3cccs3)on2)cc1 category_label="0 (no)"
molecule=N#Cc1ccccc1NC(=O)c1cccc(COc2ccc(Cl)cc2Cl)c1 category_label="0 (no)"
molecule=CCS(=O)(=O)N1CCc2cc(C(=O)NCc3ccc(C)cc3)ccc21 category_label="0 (no)"
molecule=COCCN(C(=O)c1ccco1)c1nnc(-c2ccc(OC)cc2)s1 category_label="1 (yes)"
molecule=COCn1c(COc2ccccc2)nc2ccccc21 category_label="1 (yes)"
molecule=COc1cc(SC)ccc1C(=O)NCCOc1ccccc1Cl category_label="1 (yes)"
molecule=COc1ccc(NC(=O)Cn2c(=O)cc(C)c3c(C)nn(-c4cccc(Cl)c4C)c32)cc1OC category_label="0 (no)"
molecule=COc1ccc(N(CC(=O)NC(C)(C)C)C(=O)c2ccco2)cc1 category_label="0 (no)"
molecule=COc1ccc(C2=Nc3cc(C)ccc3OC2)cc1 category_label="1 (yes)"
molecule=Cc1noc(C)c1CSCC(=O)Nc1nc2ccc(Oc3ccccc3)cc2s1 category_label="0 (no)"
molecule=CCC(=O)Nc1ccc(C(=O)Nc2cccc(OC)c2)cc1 category_label="1 (yes)"
molecule=O=CN1CCN(C(=O)c2ccc3c(c2)OCO3)CC1 category_label="0 (no)"
molecule=COc1ccc(N=Cc2c(O)[nH]c3ccccc23)cc1OC category_label="1 (yes)"
molecule=Cc1ccc(O)c(NC(=O)c2cc(-c3ccco3)on2)c1 category_label="1 (yes)"
molecule="CCCCOC(=O)CSc1ncnc2sc3c(c12)CCC(C)C3 (stereo unspecified)" category_label="0 (no)"
molecule=CCOC(=O)CSc1nnc(CNc2ccc(F)cc2)o1 category_label="0 (no)"
